pKi: −log10 of the molar value.
Entries with reported pKi on Prothrombin (Homo sapiens)
result-type: pKi

INSERT INTO measurements (molecular_string, endpoint_value) VALUES
  ('Cc1nc(N)ccc1CNC(=O)Cn1c(C)cc(S(=O)(=O)c2ccccc2)c(N)c1=O', 8.42),
  ('Cc1nc(N)ccc1CNC(=O)Cn1c(C)cc(S(=O)(=O)CC2CCC2)c(N)c1=O', 9.70),
  ('Cc1nc(N)ccc1CNC(=O)Cn1c(C)cc(S(=O)(=O)CC2CC2)c(N)c1=O', 8.74),
  ('Cc1nc(N)ccc1CNC(=O)Cn1c(C)cc(S(=O)(=O)C2CCCCC2)c(N)c1=O', 8.52),
  ('Cc1nc(N)ccc1CNC(=O)Cn1c(C)cc(S(=O)(=O)C2CC2)c(N)c1=O', 7.77),
  ('Cc1nc(N)ccc1CNC(=O)Cn1c(C)cc2c(c1=O)NCN(CC1CC1)S2(=O)=O', 8.68),
  ('Cc1nc(N)ccc1CNC(=O)Cn1c(C)cc(S(=O)(=O)CC2CCCC2)c(N)c1=O', 8.92);
